Assay: chemical genetic growth profiling, strain panel (AID 1159580);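 note: tested at 20 µM; growth read once vehicle control cultures reached saturation at 30 °C; lower values mean less growth of the strain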
Conditions: S. cerevisiae deletion strains, growth OD, locus YLR370C, strain arc18
Out of some 5,500 compounds screened, about 2,000 (36%) were called active. Inconclusive results (about 18%) are left out. Cut-off read from the data, not from the text of the source: active = normalized growth mostly below about 0.91 (no sharp cut-off); inconclusive = no clear call, values can overlap the other calls; inactive = mostly above about 0.92. The list shows a part of the results.
Give your call using only these classes: active, inactive

Use the examples below as a reference point.
| compound | groupLabel |
| --- | --- |
| COc1ccc2c(c1)CCC1C2CCC2(C)C1C[C@@H](O)C2O (stereo not given in full) | inactive |
| CC(C)c1c(O)ccc2c1CCC1C(C)(C)CCC[C@]21C (stereo not given in full) | inactive |
| CC1(C)C=CC(=O)[C@@]2(C)C1CC(=O)[C@]1(C)C2CC[C@@]2(C)[C@H](c3ccoc3)OC(=O)C3OC321 (stereo not given in full) | inactive |
| O=c1ccc2cc(OC3OC(CO)C(O)C(O)C3O)c(O)cc2o1 (stereo not given) | inactive |
| C=CC1C2=CCOC(=O)C2=COC1OC1OC(CO)C(O)C(O)C1O (stereo not given) | inactive |

Challenge: State the result this test recorded for C[C@@H]1O[C@@H](OC[C@H]2OC(Oc3c(-c4ccc(O)c(O)c4)oc4cc(O)cc(O)c4c3=O)[C@H](O)[C@@H](O)[C@@H]2O)[C@H](O)[C@H](O)[C@H]1O (stereo not given in full) .
Response given: inactive

Challenge: Same again, this time with Oc1cc2c(cc1O)C1c3ccc(O)c(O)c3OCC1(O)C2 (stereo not given)
Response given: inactive

Challenge: Could you do the same for "COc1ccc(-c2oc3cc(O[C@H]4O[C@H](CO)[C@@H](O)[C@H](O)[C@H]4O)c(OC)c(O)c3c(=O)c2OC)cc1O" , please?
Response given: inactive

Challenge: Here is the next compound: "O=C(O)C1=C[C@@H](O)[C@@H](O)[C@H](O)C1"
Response given: inactive

Challenge: Entry to check: CC(=O)O[C@@H]1CC2C(C)(C)C(=O)C=C[C@]2(C)C2CC[C@@]3(C)[C@H](c4ccoc4)OC(=O)[C@H]4O[C@]43[C@@]21C (stereo not given in full)
Response given: inactive

Challenge: Queued: "O=C1[O][Bi][O]c2ccccc21"
Response given: inactive

Challenge: Query Oc1ccc2c(c1)OCC1(O)Cc3cc(O)c(O)cc3C21 (stereo not given) next
Response given: inactive

Challenge: Now the same for "C=C(C)[C@H]1COc2cc3oc(=O)ccc3cc2O1"
Response given: active

Challenge: Same question for CC(=O)Oc1ccc2c(c1OC(C)=O)OCC1(O)Cc3c(cc(OC(C)=O)c(OC(C)=O)c3OC(C)=O)C21 (stereo not given) please.
Response given: inactive

Challenge: Subsequent entry: "CN(C)c1ccc2nc3ccc(=[N+](C)C)cc-3sc2c1"
Response given: inactive

Challenge: Moving on to the next compound: "CCc1cc(C(N)=S)ccn1"
Response given: inactive
